# tgt: KRas G12D fused to HiBiT peptide (Homo sapiens, UniProt P01116, G12D)
# Construct: endogenous in cells; host or cells: AsPC-1 HiBiT knock-in single clone (Cas9 RNP + ssODN)
# Sequence (P01116 1-188 isoform P01116-2 G12D): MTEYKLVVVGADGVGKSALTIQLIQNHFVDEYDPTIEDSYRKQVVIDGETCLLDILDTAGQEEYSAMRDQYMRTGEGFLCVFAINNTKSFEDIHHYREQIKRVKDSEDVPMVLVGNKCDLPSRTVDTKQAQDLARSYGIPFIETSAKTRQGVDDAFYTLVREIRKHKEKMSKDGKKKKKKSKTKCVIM
# experiment: ASPC-1 HiBit assay to determine G12D degradation
# Assay type: cell-based
# run-conditions: AsPC-1 HiBiT cells, 24-hour incubation; read-out: ASPC-1 HiBit DC50 (C)
Recorded DC50, one value per entry.
Use nM as the unit, but write only the number.

Example entries begin here.
C[C@H](NC(=O)[C@@H]1C[C@@H](O)CN1C(=O)[C@@H](NC(=O)CCOCCCN1CCC[C@H]1COc1nc(N2CC3CCC(C2)N3)c2cc(C(F)(F)F)c(-c3ccc(F)c4sc(N)c(C#N)c34)c(F)c2n1)C(C)(C)C)c1ccc(-c2ccccc2Cl)cc1 [Example 95]; 43
CC(C)[C@@H](C(=O)N1C[C@H](O)C[C@H]1C(=O)N[C@@H](C)c1ccc(-c2c(F)cc(F)cc2F)cc1)c1cc(OCC2CCN(CCOc3nc(N4CC5CCC(C4)N5)c4cc(C(F)(F)F)c(-c5ccc(F)c6sc(N)c(C#N)c56)c(F)c4n3)CC2)no1 [Example 78]; 294
CC(C)[C@@H](C(=O)N1C[C@H](O)C[C@H]1C(=O)N[C@@H](C)c1ccc(-c2c(F)cccc2F)cc1)c1cc(N2CC3(CCN(CCOc4nc(N5CC6CCC(C5)N6)c5cc(C(F)(F)F)c(-c6ccc(F)c7sc(N)c(C#N)c67)c(F)c5n4)CC3)C2)no1 [Example 77]; 330

Task: Provide KRas G12D fused to HiBiT peptide (Homo sapiens, UniProt P01116, G12D) DC50 reading for C#Cc1c(F)ccc2cc(O)cc(-c3ncc4c(N5CC6CCC(C5)N6)nc(OCCN5CCC6(CC5)CN(c5cc([C@H](C(=O)N7C[C@H](O)C[C@H]7C(=O)N[C@@H](C)c7ccc(-c8cccc(F)c8F)cc7)C(C)C)on5)C6)nc4c3F)c12 [Example 98] .
Output: 107
